I'd appreciate it if you could supply normalized growth values for the items below.
experiment: chemical genetic growth profiling, strain panel (AID 1159580);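 further: tested at 20 µM; growth read once vehicle control cultures reached saturation at 30 °C; 1 = growth at the plate median or of vehicle wells; lower values mean less growth of the strain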; details: S. cerevisiae deletion strains, growth OD, locus YHR200W, strain rpn10, active compounds read low
In all, about 5,500 compounds went through this assay and about 2,000 (36%) were called active. Roughly 18% stayed inconclusive and do not appear here. Some of the results follow.
Just the number, please, no unit attached.

Exercise: # return recorded normalized growth for input `CCNc1nc(Cl)nc(NC(C)C)n1`
Solution: 1.02

Exercise: Given `Nc1ncnc2nc[nH]c12` , respond with its normalized growth.
Solution: 0.998

Exercise: Kindly indicate its recorded normalized growth. Item: CCOc1nc2cccc(C(=O)OC(C)OC(=O)OC3CCCCC3)c2n1Cc1ccc(-c2ccccc2-c2nn[nH]n2)cc1 (centres undefined)
Solution: 0.998

Exercise: Given the compound `CCCc1nc(C(C)(C)O)c(C(=O)OCc2oc(=O)oc2C)n1Cc1ccc(-c2ccccc2-c2nn[nH]n2)cc1` , write its reported normalized growth.
Solution: 0.981

Exercise: Given the compound `COc1ccc2c(c1)[nH]c1c(C)nccc12` , write its reported normalized growth.
Solution: 0.97

Exercise: Kindly indicate its recorded normalized growth. Item: `COc1cc2ccc(=O)oc2cc1O`
Solution: 0.991

Exercise: Let me know recorded normalized growth for `COc1ccc2ccc(=O)oc2c1CC=C(C)C` , thanks.
Solution: 0.812

Exercise: Check the records and state normalized growth for `O=c1cc(-c2ccc(O)cc2)oc2cc(O[C@@H]3O[C@H](CO)[C@@H](O)[C@H](O)[C@H]3O[C@@H]3OC[C@](O)(CO)[C@H]3O)cc(O)c12`
Solution: 0.995

Exercise: Please report the measured normalized growth for `CCCCC(=O)N(Cc1ccc(-c2ccccc2-c2nn[nH]n2)cc1)[C@H](C(=O)O)C(C)C`
Solution: 0.974

Exercise: Supply measured normalized growth of `Cc1cc(O)c2c(c1O)C(=O)c1c(O)cc(C)c(O)c1C2=O` in your reply.
Solution: 0.994

Exercise: Query normalized growth for `C[C@H]1C(=O)O[C@@H]2CCN3CC=C(COC(=O)[C@](C)(O)[C@]1(C)O)[C@H]23`
Solution: 0.991

Exercise: Please report the measured normalized growth for `N#Cc1ccc2c(c1)N(CCCN1CCC(O)CC1)c1ccccc1S2`
Solution: 1.02

Exercise: Give normalized growth for `COc1cc2ccc(=O)oc2c(O)c1O`
Solution: 0.988

Exercise: Output measured normalized growth for this item: `OCCN1CCN(CCCN2c3ccccc3Sc3ccc(Cl)cc32)CC1`
Solution: 0.986

Exercise: State its normalized growth for this compound: `CNC(=O)CSP(=S)(OC)OC`
Solution: 1.02

Exercise: Answer with reported normalized growth of `COc1ccc2[nH]cc(CCNC(C)=O)c2c1`
Solution: 1.03

Exercise: Provide normalized growth value for the following compound: CC(C)(O)CC[C@@H](O)[C@](C)(O)C1CC[C@@]2(O)C3=CC(=O)C4C[C@@H](O)[C@@H](O)C[C@]4(C)C3CC[C@]12C (some centres undefined)
Solution: 1.01

Exercise: Please report normalized growth for the following compound: `COc1cc(O)c(C(=O)c2ccccc2)c(OC)c1`
Solution: 0.985

Exercise: Read off the recorded normalized growth for `COc1c(O)cc(O)cc1O`
Solution: 0.984

Exercise: Respond only with normalized growth recorded for `COc1cc(O)c(C)c(O)c1`
Solution: 1.02

Exercise: Supply normalized growth value. Item: `COP(=S)(OC)SCn1nnc2ccccc2c1=O`
Solution: 0.99

Exercise: Name the recorded normalized growth of the compound listed here: `COc1cc2ccc(=O)oc2c(OC)c1OC`
Solution: 1.02

Exercise: Report normalized growth for `CN(C)c1nc(N(C)C)nc(N(C)C)n1`
Solution: 1.02

Exercise: Report measured normalized growth; entry is `CC(C)=CCC1=C(O)c2ccccc2C(=O)C1=O`
Solution: 0.932

# credit: PubChem BioAssay AID1159580
